Exercise: state measured pKi for each of the compounds provided.
target: Proprotein convertase subtilisin/kexin type 6 (Homo sapiens); assay: Inhibition of human recombinant PACE4 expressed in drosophila schneider 2 cells using pyroGlu-Arg-Thr-Lys-Arg-AMC as substrate after 1 hr
Sequence (P29122 whole entry): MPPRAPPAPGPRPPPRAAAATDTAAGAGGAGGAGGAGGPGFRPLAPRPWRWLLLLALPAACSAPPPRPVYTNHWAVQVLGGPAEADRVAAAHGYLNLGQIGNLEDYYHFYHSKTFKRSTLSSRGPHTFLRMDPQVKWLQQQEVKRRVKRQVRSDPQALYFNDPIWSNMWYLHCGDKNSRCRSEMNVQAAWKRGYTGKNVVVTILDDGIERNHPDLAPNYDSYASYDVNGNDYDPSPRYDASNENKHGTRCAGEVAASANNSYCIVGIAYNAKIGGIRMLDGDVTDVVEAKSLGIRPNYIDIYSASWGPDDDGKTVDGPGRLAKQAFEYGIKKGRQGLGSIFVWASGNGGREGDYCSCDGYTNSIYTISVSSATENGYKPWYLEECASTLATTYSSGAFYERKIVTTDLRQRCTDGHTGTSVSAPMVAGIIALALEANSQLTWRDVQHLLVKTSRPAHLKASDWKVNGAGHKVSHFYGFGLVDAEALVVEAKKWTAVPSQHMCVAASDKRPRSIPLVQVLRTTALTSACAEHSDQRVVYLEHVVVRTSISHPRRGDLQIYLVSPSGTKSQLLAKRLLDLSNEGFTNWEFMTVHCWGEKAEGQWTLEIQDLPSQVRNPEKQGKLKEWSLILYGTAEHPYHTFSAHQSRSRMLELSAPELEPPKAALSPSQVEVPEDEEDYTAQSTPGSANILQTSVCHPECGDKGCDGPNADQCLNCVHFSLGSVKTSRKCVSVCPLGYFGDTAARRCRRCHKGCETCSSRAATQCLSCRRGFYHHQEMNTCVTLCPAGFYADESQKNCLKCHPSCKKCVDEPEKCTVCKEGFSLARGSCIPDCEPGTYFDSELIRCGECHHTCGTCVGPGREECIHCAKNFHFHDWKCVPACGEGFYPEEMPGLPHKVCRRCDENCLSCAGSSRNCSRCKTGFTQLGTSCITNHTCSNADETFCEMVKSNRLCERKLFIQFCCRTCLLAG
Square brackets hold non-standard residues; d marks the D form. Peptide text beside a SMILES is read from it. Nle = CCCC[C@H](N)C(=O)O
Numbers only, as −log10 of the molar value.

A selection of reference data follows.
compound	pKi
CC(=O)N[C@H](CC(C)C)C(=O)N[C@@H](CC(C)C)C(=O)N[C@@H](CC(C)C)C(=O)N[C@@H](CC(C)C)C(=O)N[C@@H](CCCN=C(N)N)C(=O)N[C@H](C(=O)N[C@@H](CCCCN)C(=O)N[C@@H](CCCN=C(N)N)C(N)=O)C(C)C	7.62
CC(=O)N[C@@H](CC(C)C)C(=O)N[C@@H](CC(C)C)C(=O)N[C@H](CC(C)C)C(=O)N[C@@H](CC(C)C)C(=O)N[C@@H](CCCNC(=N)N)C(=O)N[C@H](C(=O)N[C@@H](CCCCN)C(=O)N[C@@H](CCCNC(=N)N)C(N)=O)C(C)C	5.20

Switching to the query record.
Challenge: Record request: pKi value, item CCCC[C@H](NC(=O)[C@H](CC(C)C)NC(=O)[C@H](CC(C)C)NC(C)=O)C(=O)N[C@@H](CCCC)C(=O)N[C@@H](CCCN=C(N)N)C(=O)N[C@H](C(=O)N[C@@H](CCCCN)C(=O)N[C@@H](CCCN=C(N)N)C(N)=O)C(C)C (Ac-LL[Nle][Nle]RVKR-NH2)
Response given: 6.46
